- Tested on: greenhouse red spider mite (Tetranychus urticae)
- measurement_protocol: Tetranychus urticae spray test, OP-resistant (bean leaf discs)
- Format: in vivo
- measurement_conditions: application rate 500 g/ha, after 6 days
Below, each entry is listed with its recorded efficacy (spider mites killed).
Report as a plain number; the unit % is understood.

These solved cases illustrate the format of a correct answer.
compound	target_under_test	units_of_measure	efficacy (spider mites killed)
Cc1cc(F)c(-n2ncc(=O)n(Cc3cccnc3)c2=O)cc1SCC(F)(F)F [compound 43]	greenhouse red spider mite (Tetranychus urticae)	%	90
Cc1cc(F)c(-n2ncc(=O)n(C(C)C)c2=O)cc1[S+]([O-])CC(F)(F)F (racemic) [compound 30]	greenhouse red spider mite (Tetranychus urticae)	%	100

Qu. State the recorded efficacy (spider mites killed) for this entry: CCn1c(=O)ccn(-c2cc([S+]([O-])CC(F)(F)F)c(C)cc2C)c1=O (centres unmarked) [compound 97]
Ans. 100

Qu. What would you report for Cc1cc(F)c(-n2ncc(=O)n(CC3CC3)c2=O)cc1[S+]([O-])CC(F)(F)F (racemic) [compound 27] ?
Ans. 100

Qu. Check Cc1cc(C)c([S+]([O-])CC(F)(F)F)cc1-n1ccc(=O)n(C)c1=O (centres unmarked) [compound 93] too.
Ans. 100

Qu. Next entry: CCn1c(=O)cnn(-c2cc([S+]([O-])CC(F)(F)F)c(C)cc2C)c1=O (racemic) [compound 35]
Ans. 100

Qu. Do the same for CCCn1c(=O)ccn(-c2cc(SCC(F)(F)F)c(C)cc2F)c1=O [compound 78] please
Ans. 90

Qu. Moving on to CCn1c(=O)cnn(-c2cc([S+]([O-])CC(F)(F)F)c(C)cc2F)c1=O (racemic) [compound 21]
Ans. 100

Qu. Then Cc1cc(F)c(-n2ncc(=O)n(CC(C)C)c2=O)cc1SCC(F)(F)F [compound 20] ?
Ans. 100

Qu. Try the compound Cc1cc(F)c(-n2ncc(=O)n(CC(F)(F)F)c2=O)cc1SCC(F)(F)F [compound 10]
Ans. 90

Qu. Cool, now Cc1cc(F)c(-n2ccc(=O)n(CC(C)C)c2=O)cc1SCC(F)(F)F [compound 81]
Ans. 90

---

- measurement_protocol: log P by reversed-phase HPLC analogously to OECD Guideline 117
- Assay type: physicochemical
- measurement_conditions: [b] neutral range, pH 7.8, ammonium hydrogencarbonate/acetonitrile
Threshold check on LogP[b]: at or above 3 gives yes (1), strictly below gives no (0).

Below are worked cases with known answers.
compound	group_label
Cc1cc(C)c([S+]([O-])CC(F)(F)F)cc1-n1ncc(=O)n(CC2CC2)c1=O (racemic)	no (0)
Cc1cc(F)c(-n2ccc(=O)n(CC3CC3)c2=O)cc1SCC(F)(F)F	yes (1)
Cc1cc(F)c(-n2ncc(=O)n(C(C)C)c2=O)cc1[S+]([O-])CC(F)(F)F (racemic)	no (0)
O=c1cnn(-c2cc([S+]([O-])CC(F)(F)F)c(Cl)cc2Cl)c(=O)[nH]1 (racemic)	no (0)

Qu. Test whether the compound Cc1cc(F)c(-n2ccc(=O)n(CC3CC3)c2=O)cc1[S+]([O-])CC(F)(F)F (racemic) records LogP[b] of 3 or higher.
Ans. no (0)

Qu. Input Cc1cc(F)c(-n2ccc(=O)n(CC#N)c2=O)cc1SCC(F)(F)F
Ans. no (0)

Qu. Same question, Cc1cc(F)c(-n2ncc(=O)n(CC3CC3)c2=O)cc1[S+]([O-])CC(F)(F)F (racemic) this time
Ans. no (0)
